# subject_of_test: Peptidyl-prolyl cis-trans isomerase FKBP1A (Homo sapiens, UniProt P62942, F36V)
# Sequence (P62942 2-108 F37V limits assumed): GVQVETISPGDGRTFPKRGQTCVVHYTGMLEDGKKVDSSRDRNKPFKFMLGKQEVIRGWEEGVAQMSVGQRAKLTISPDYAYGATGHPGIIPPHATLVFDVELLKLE
# procedure_details: Binding affinity for Mutant F36V-FK506 binding protein by competitive assay based on fluorescence polarization.
recorded_endpoint: log10 IC50 (log10 of the value in nM)
Response schema: value (number) is log10 of IC50 in units of nM.

*Q* Bench note: what log10 IC50 did CCC[C@H](C(=O)N1CCCC[C@H]1C(=O)OC(CCc1ccc(OC)c(OC)c1)c1cccc(OCC(=O)O)c1)c1cc(OC)c(OC)c(OC)c1 (some centres not stated) show?
*A* 0.58

*Q* Requested field: log10 IC50. Item: COc1ccc(CCC(OC(=O)[C@@H]2CCCCN2C(=O)C(c2ccccc2)c2ccccc2)c2cccc(OCC(=O)O)c2)cc1OC (some centres not stated)
*A* 2.44

*Q* Given COc1ccc(CCC(OC(=O)[C@@H]2CCCCN2C(=O)[C@@H](C)c2ccccc2)c2cccc(OCC(=O)O)c2)cc1OC (some centres not stated) , state its recorded log10 IC50.
*A* 1.97

*Q* What does the data say about its log10 IC50? Entry: `COc1ccc(CC[C@@H](OC(=O)[C@@H]2CCCCN2C(=O)Cc2ccccc2)c2cccc(OCC(=O)O)c2)cc1OC`
*A* 3.18

*Q* What measured log10 IC50 goes with COc1ccc(CCC(OC(=O)[C@@H]2CCCCN2C(=O)[C@H](CC2CC2)c2cc(OC)c(OC)c(OC)c2)c2cccc(OCC(=O)O)c2)cc1OC (some centres not stated) ?
*A* 2.10

*Q* What does the record list as log10 IC50 for COc1ccc(CCC(OC(=O)[C@@H]2CCCCN2C(=O)[C@H](C)c2ccccc2)c2cccc(OCC(=O)O)c2)cc1OC (some centres not stated) ?
*A* 2.77

*Q* // returns reported log10 IC50 for input C=CC[C@@H](C(=O)N1CCCC[C@H]1C(=O)OC(CCc1ccc(OC)c(OC)c1)c1cccc(OCC(=O)O)c1)c1cc(OC)c(OC)c(OC)c1 (some centres not stated)
*A* 1.28

###

# subject_of_test: Peptidyl-prolyl cis-trans isomerase FKBP1A (Homo sapiens, UniProt P62942, F36V)
# procedure_details: Binding affinity for Mutant F36V-FK506 binding protein by competitive assay based on fluorescence polarization.
pIC50: −log10 of the molar value.
Lab note: compare pIC50 against 8. Equal or greater, write true (1). Smaller, write false (0).

*Q* Textbook exercise: given the entry COc1ccc(CCC(OC(=O)[C@@H]2CCCCN2C(=O)[C@@H](CC2CC2)c2cc(OC)c(OC)c(OC)c2)c2cccc(OCC(=O)O)c2)cc1OC (stereo partly specified) , state whether its pIC50 is greater than or equal to 8.
*A* true (1)

*Q* Threshold query (pIC50 >= 8) on COc1ccc(CCC(OC(=O)[C@@H]2CCCCN2C(=O)[C@H](c2cc(OC)c(OC)c(OC)c2)C(C)C)c2cccc(OCC(=O)O)c2)cc1OC (stereo partly specified)
*A* true (1)

*Q* Reported pIC50 at or above 8? COc1ccc(CCC(OC(=O)[C@@H]2CCCCN2C(=O)[C@@H](c2cc(OC)c(OC)c(OC)c2)C(C)C)c2cccc(OCC(=O)O)c2)cc1OC (stereo partly specified)
*A* false (0)

*Q* Given CC[C@@H](C(=O)N1CCCC[C@H]1C(=O)OC(CCc1ccc(OC)c(OC)c1)c1cccc(OCC(=O)O)c1)c1ccccc1 (stereo partly specified) , state whether its pIC50 is at least 8.
*A* false (0)

*Q* Check this compound for pIC50 at or above 8: `CC[C@H](C(=O)N1CCCC[C@H]1C(=O)O[C@H](CCc1ccc(OC)c(OC)c1)c1cccc(OCC(=O)O)c1)c1ccccc1`
*A* false (0)

*Q* Form field: pIC50 at least 8? Entry: COc1ccc(CCC(OC(=O)[C@@H]2CCCCN2C(=O)[C@H](c2ccccc2)C(C)C)c2cccc(OCC(=O)O)c2)cc1OC (stereo partly specified)
*A* false (0)

*Q* Is pIC50 for COc1ccc(CCC(OC(=O)[C@@H]2CCCCN2C(=O)[C@@H](c2ccccc2)C(C)C)c2cccc(OCC(=O)O)c2)cc1OC (stereo partly specified) at or above 8?
*A* false (0)

*Q* Hi team, for C=CC[C@H](C(=O)N1CCCC[C@H]1C(=O)OC(CCc1ccc(OC)c(OC)c1)c1cccc(OCC(=O)O)c1)c1cc(OC)c(OC)c(OC)c1 (stereo partly specified) , is the recorded pIC50 at or above 8?
*A* true (1)

*Q* For this compound, is measured pIC50 8 or higher? CCC[C@@H](C(=O)N1CCCC[C@H]1C(=O)OC(CCc1ccc(OC)c(OC)c1)c1cccc(OCC(=O)O)c1)c1cc(OC)c(OC)c(OC)c1 (stereo partly specified)
*A* false (0)

*Q* Does pIC50 meet or surpass 8 for CC[C@@H](C(=O)N1CCCC[C@H]1C(=O)OC(CCc1ccc(OC)c(OC)c1)c1cccc(OCC(=O)O)c1)c1cc(OC)c(OC)c(OC)c1 (stereo partly specified) ?
*A* false (0)

*Q* Hello, I need to know if `CC[C@H](C(=O)N1CCCC[C@H]1C(=O)O[C@H](CCc1ccc(OC)c(OC)c1)c1cccc(OCC(=O)O)c1)c1cc(OC)c(OC)c(OC)c1` has measured pIC50 not below 8. Thanks!
*A* true (1)
